Target or system: Tumor necrosis factor receptor superfamily member 10B (Homo sapiens) (UniProt O14763)
Sequence (O14763 whole entry, looked up): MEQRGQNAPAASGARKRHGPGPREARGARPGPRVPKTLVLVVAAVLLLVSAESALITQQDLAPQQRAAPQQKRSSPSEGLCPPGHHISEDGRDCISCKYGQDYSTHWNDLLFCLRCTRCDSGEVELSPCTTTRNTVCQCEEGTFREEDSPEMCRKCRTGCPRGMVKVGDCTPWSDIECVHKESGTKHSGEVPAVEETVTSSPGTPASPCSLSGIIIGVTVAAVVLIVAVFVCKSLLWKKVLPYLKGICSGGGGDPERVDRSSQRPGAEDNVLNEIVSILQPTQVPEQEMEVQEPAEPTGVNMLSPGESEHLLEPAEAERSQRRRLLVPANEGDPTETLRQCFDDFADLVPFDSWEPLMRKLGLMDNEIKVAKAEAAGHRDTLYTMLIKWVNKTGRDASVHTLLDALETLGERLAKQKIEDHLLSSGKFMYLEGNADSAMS
Assay explanation: caspase-8 TRAIL sensitization, hit retest, confirmation, cell-based, NB7+caspase-8, with/without TRAIL, luminescence panel (AID 651596)
Assay context: NB7 neuroblastoma + caspase-8, TRAIL sensitization, luminescence viability, with TRAIL, mean of runs, at 10 µM, stronger effect = higher value
activity vs 80%: less than gives true; not less than gives false.

Structure smiles: CCCCCCCCCCn1ccc(=N)cc1
Group label: false
//
Structure smiles: CCc1ccc2nc(N(CCCN(C)C)C(=O)c3ccc(C(=O)c4ccccc4)cc3)sc2c1
Group label: true
//
Structure smiles: CN(C(=O)COC(=O)c1cnc(Cl)c(Cl)c1)C1CCCCC1
Group label: true
//
Structure smiles: CCOc1ccc(C(=O)Nc2ccc3c(c2)OCCO3)cc1
Group label: true

====

Assay explanation: Apaf-1 inhibitors, single-dose retest, confirmation, biochemical, fluorescence, DEVD-Rh110, 20 µM (AID 504614);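 further: plate controls were DMSO wells for no effect and DEVD-CHO caspase inhibitor control wells for full effect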
Assay context: reconstituted apoptosome, caspase-3 DEVD-Rh110 fluorescence; at 20 µM
Some of the results follow. Activity calls are given as the source filed them.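 The calls were made as follows: active = mean inhibition of at least 40% at 20 µM; inactive = the rest.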
Outcomes: t (active), f (inactive)

Compound: COc1ccc(-c2nc3cc(C)ccn3c2NC2CCCCC2)cc1SC1CCCCC1
Group label: f

Compound: C#CCOCCOCCOCCNc1nc(N2CCN(C(=O)C([C@@H](C)O)n3cc([C@@H](N)CCCCN)nn3)CC2)nc(N2CCN(C(=O)[C@H](CCCCN)n3cc(CN)nn3)CC2)n1 (stereo partly drawn)
Group label: f

Compound: NC(N)=NCCCc1cn(CC(=O)N2CCNCC2)nn1
Group label: f

Compound: CCOC(=O)C1CCN(C(=O)c2cccc(S(=O)(=O)N(CC)c3ccccc3)c2)CC1
Group label: f

Compound: CCCCCCCCCCOC(=O)Cn1c(COc2ccc(C)cc2)[n+](C)c2ccccc21
Group label: t

Compound: CCc1ccc(CNC(=O)C2CCN(c3nnc(C)c4c(C)n(-c5ccc(C)cc5)nc34)CC2)cc1
Group label: f

Compound: C#CCOCCOCCOCCNc1nc(N2CCN(C(=O)CCCCCCCCCCNC(=O)Cn3cc(CCCCCN)nn3)CC2)nc(N2CCN(C(=O)CCCCCCCCCCNC(=O)[C@H](CO)n3cc(CCCSC)nn3)CC2)n1
Group label: t

Compound: CCOc1[nH]n(-c2ccc(Cl)cc2)c(=O)c1C=Nc1ccc(O)cc1
Group label: f

====

Target or system: PEG-3 (UniProt Q6IN02)
Sequence (Q6IN02 whole entry, looked up): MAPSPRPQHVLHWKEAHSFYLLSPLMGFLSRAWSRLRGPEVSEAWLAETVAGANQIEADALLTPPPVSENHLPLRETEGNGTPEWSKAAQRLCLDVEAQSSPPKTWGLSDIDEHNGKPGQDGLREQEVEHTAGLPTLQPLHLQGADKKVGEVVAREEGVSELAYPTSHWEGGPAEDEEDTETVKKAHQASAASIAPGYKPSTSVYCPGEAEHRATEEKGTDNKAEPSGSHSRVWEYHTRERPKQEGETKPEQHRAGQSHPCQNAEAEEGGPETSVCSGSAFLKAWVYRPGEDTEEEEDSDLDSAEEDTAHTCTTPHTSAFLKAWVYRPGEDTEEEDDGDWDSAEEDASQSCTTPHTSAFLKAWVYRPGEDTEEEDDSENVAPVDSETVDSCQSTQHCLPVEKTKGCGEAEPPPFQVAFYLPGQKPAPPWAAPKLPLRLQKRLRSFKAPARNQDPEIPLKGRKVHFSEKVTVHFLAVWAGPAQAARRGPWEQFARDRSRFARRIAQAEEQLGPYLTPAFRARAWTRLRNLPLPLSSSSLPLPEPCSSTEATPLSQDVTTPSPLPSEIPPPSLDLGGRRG
Assay explanation: Peg3 promoter luciferase inhibitors, potency, dose response, cell-based, HeLa, CREF/GAPDH counter-screen panel (AID 624167)
Assay context: CREF/GAPDH counter-screens; HeLa PEG-Prom luciferase reporter, overnight, run 2, dose range 1, at 100 µM (top of the series) unless noted
Quick list: inhibition per entry.

Molecule: Cc1cc(S(=O)(=O)c2ccc(Cl)cc2)nc(S(=O)(=O)c2ccc(Cl)cc2)c1C#N
Display unit: %
inhibition: 101

Molecule: C(=N\Nc1nc2ccccc2[nH]1)/c1ccccn1
Display unit: %
inhibition: 101

Molecule: CC(/C=C/c1ccccc1)=N/NC(=O)c1cc([N+](=O)[O-])cc([N+](=O)[O-])c1
Display unit: %
inhibition: 86.3

Molecule: CN=c1scc(-c2cccs2)n1/N=C/c1ccccc1O
Display unit: %
inhibition: 102

Molecule: COc1cccc(-c2cnc3c(NC=O)cc(-c4cccc(C(=O)N(C)C)c4)cn23)c1
Display unit: %
inhibition: 97.5

Molecule: CC(C)c1ccc(/C=N/Nc2ccc(C(=O)O)cc2)cc1
Display unit: %
inhibition: 84

Molecule: NCCCNc1nc(N)c([N+](=O)[O-])c(NC2CCCCC2)n1
Display unit: %
inhibition: 102

Molecule: O=C(CCl)N1c2ccccc2Sc2ccc3ccccc3c21
Display unit: %
inhibition: 101

Molecule: Cc1ccc(NC(=O)Nc2ccnc(-c3cccnc3)n2)cc1
Display unit: %
inhibition: 8.15

Molecule: c1ccc(CCCNCCCn2cnc3c(OCc4ccccc4)ncnc32)cc1
Display unit: %
inhibition: 101

Molecule: c1ccc(-c2noc(-c3ccc4c(c3)OCO4)n2)nc1
Display unit: %
inhibition: 94.5

Molecule: OCCNCc1cc(Br)ccc1OCc1ccc(Cl)cc1Cl
Display unit: %
inhibition: 101

Molecule: CC(NC(=O)c1ccc([N+](=O)[O-])o1)C12CC3CC(CC(C3)C1)C2 (configuration not stated)
Display unit: %
inhibition: 98.5

Molecule: Cc1ccc(C(=O)Nc2nc3ccccc3[nH]2)cc1
Display unit: %
inhibition: 88.1

Molecule: Cc1ccc2[nH]c3c(c2c1)CCCC3NC(=O)CCl (configuration not stated)
Display unit: %
inhibition: 96.5

Molecule: C=C1CC2(OC1=O)c1ccccc1CCc1ccccc12
Display unit: %
inhibition: 101

Molecule: CCN(Cc1ccccc1)S(=O)(=O)c1ccc(C(=O)N(CCCN(C)C)c2nc3cc4c(cc3s2)OCCO4)cc1
Display unit: %
inhibition: 101

Molecule: Cc1ccc(C(=O)Nc2cnc3ccccc3c2)cc1
Display unit: %
inhibition: 98

Molecule: O=c1c(Cl)c(N2CCCCC2)cnn1-c1nc2ccccc2[nH]1
Display unit: %
inhibition: 95

Molecule: CCCN1C=CC(=C2C(=O)c3ccccc3C2=O)C=C1
Display unit: %
inhibition: 98.2

Molecule: Cc1nc(N2CCN(c3ccccc3O)CC2)c2c(-c3ccccc3)csc2n1
Display unit: %
inhibition: 94

Molecule: COc1cccc2c1C(=O)c1c(O)c3c(c(O)c1C2=O)CC(O)(C(C)=NNC(=O)c1ccc(Cl)c(Cl)c1)CC3OC1CC(N)C(O)C(C)O1 (configuration not stated)
Display unit: %
inhibition: 101
